biological target: S. aureus SrtA (WT-SrtA) (Staphylococcus aureus)
Sequence (Q2FV99 60-206): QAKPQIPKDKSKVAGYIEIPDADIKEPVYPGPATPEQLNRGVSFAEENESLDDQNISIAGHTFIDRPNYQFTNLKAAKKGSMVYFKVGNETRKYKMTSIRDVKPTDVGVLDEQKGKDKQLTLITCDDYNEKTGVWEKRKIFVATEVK
Property measured: IC50 (µM)
Just the number in µM, nothing appended.

Provide value of IC50 for this record tested with S. aureus SrtA (WT-SrtA) (Staphylococcus aureus): O=C(/C=C/c1ccccc1)c1ccccc1 [chalcone]
53.2

Measured values drawn from paper PMC5592744 for this set.
